Assay: protein stability index of a GFP-peptide fusion (GPS, HEK-293T) (PSI 1-6); higher = more stable;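 note: 24-mer peptide tiles fused after GFP, lentivirally expressed, FACS-sorted into six equal bins by GFP/DsRed ratio, decoded by Illumina sequencing, PSI is the read-weighted mean bin number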
Conditions: treatment: DMSO; c terminus: a fixed tail appended
Reported Metric: protein stability index
One number for each entry.

Batch: protein stability index for all items listed.
1. SRRVLLTNVVTGHRQSFGTNSDVL [DCAF4]
2. GIETLESVPIIGGFWETIFGNRIK [PHTF1]
3. VLMIAIQLISRMEYVHSKNLIYRD [CSNK1G3]
4. PIRNRAFYMEEGVPYCERDYEKMF [PDLIM7]
5. KEGPMIHSGSVVGAGLPQFQSISL [CLCN6]
6. RIHVGKKYGDIPRGIFVVRGENVV [LSM1]
7. GVFGFFATIVFATDFYLIFNDVAK [CMTM3]
8. CMVEIVQKYDPDKDEWHKVFDLPE [KLHL13]

1: 2.87; 2: 2.67; 3: 2.86; 4: 3.3; 5: 2.91; 6: 2.37; 7: 2.75; 8: 2.52

Batch: protein stability index for all items listed.
1. TLHPISSEELLSLKYENDYPSVIL [ETS1]
2. WALGVCNNSWIRKNSTMVNSEDIF [TRIM43]
3. HPDIFLPSEICDRLVNEYVELVNA [ZER1]
4. QPKKNNVMARTRLVVPNKGYSSLD [FAM219A]
5. RSPIIDVKNDRDRVGHKSIPMRNL [SERPINB5]
6. AGGFSIRNQKGEQVFRLAFRSGAL [MYORG]
7. TFYVRFFLTYVPLLGLKAFLGLFF [FADS1]

1: 2.55; 2: 2.03; 3: 2.56; 4: 3.85; 5: 3.83; 6: 1.77; 7: 2.93

Batch: protein stability index for all items listed.
1. SVQVDGQARTQKLQGLIPGARYEV [TNXB]
2. RREEEERRRIEEERLRLEQQKQQI [ACBD3]
3. VGELLPCKICGRTFFPVALKKHGP [ZC2HC1A]
4. EFPYRMNHILECEFYLLELMDCCL [CCNC]
5. HCTVKLRQTTGLMEYCLEVIKEND [TRIM9]
6. ATLTTTSATSKLIHPDEDISLEER [ZNF207]
7. RNLETQHKVLELTAENERLQKKVE [CEBPB]
8. HPLPTVIIVNLLWFIHLVFVVLAF [TMEM192]

[2.6, 5.35, 2.84, 2.68, 3.07, 5.23, 5.12, 3.37]

Batch: protein stability index for all items listed.
1. ETLPELKDDKDFTGTVHRIDNTTV [KCNA1]
2. VKELGTVMRMLGQTPTKEELDAII [TNNC2]
3. TENRRLESKIREHLEKKGPQVRDW [KRT18]

1. 5.12
2. 3.02
3. 3.92

Batch: protein stability index for all items listed.
1. LGDMQTAREGAGLVVASGVIYCLG [KLHL12]
2. GAHEQVDFKDFYPAIADLFAESLQ [P3H4]
3. EKGETMEVIEKPENDPEWWKCKNA [NCK2]

2.47
2.84
5.36

Batch: protein stability index for all items listed.
1. LSKDHQEVETEGPESADTGDKSES [TOR1AIP2]
2. MRKTSNSCIMENGHQPGTGPGDGP [SMTNL2]
3. IARDQTKSIVEKIQAKLPGIAKKK [RTN3]
4. MAEAAALVWIRGPGFGCKAVRCAS [SDE2]
5. ITNTDVDCLKACQEQIEAVLLNSL [CCND2]

1. 5.67
2. 4.42
3. 3.8
4. 2.45
5. 2.73

Batch: protein stability index for all items listed.
1. RRGQEPLSALLQFGVTYLEDYSAE [BCL2L13]
2. SQEREGLLIVKLEEDCAWSQELPP [ZNF263]
3. FSIPPWRYDAEVVAIAQKFAALRA [MYORG]
4. DFVNLMAYDFHGSWEKVTGHNSPL [CHIT1]
5. YEKFKLYLTIILILISFTCRFLLN [TMEM120A]
6. TAGDRLTEFRKGAQSLPGPCAAAR [IRX6]

1: 3.11; 2: 3.72; 3: 2.15; 4: 1.9; 5: 3.05; 6: 4.01

Entry under review: LASAYTGRLSMAAADIVNFLTVGS [ZBTB22] . Reported protein stability index?
2.77
